read-out: Interleukin-1 alpha (IL1a), IL1A (gene 3552); experiment: BSK_LPS_IL1a: BioMAP Diversity Plus: LPS Assay for Interleukin-1 alpha (IL1a) Biomarker Activity (AID 2283080); settings: primary human HUVEC with PBMC; actives raise or lower the signal
Calls of active or inactive are those of the source. The calls were made as follows: active = hit-call score of the fitted dose curve at least 0.9, where 1 is the maximum; inactive = score below 0.9.
API: response.call in active, inactive

Solved cases below.
INSERT INTO assay_data (molecule, group_label) VALUES
  ('CCCC(CCC)C(=O)O', 'inactive'),
  ('OCCC(F)(F)C(F)(F)C(F)(F)C(F)(F)F', 'inactive'),
  ('FC(F)C(F)(F)COCC1CO1 (stereo not drawn)', 'inactive');

In: Give the logged outcome of this assay for the following molecule: FC(F)=C(F)C(F)(F)C(F)(F)C(F)(F)C(F)(F)C(F)(F)C(F)(F)F
Out: inactive

In: Give the logged outcome of this assay for the following molecule: CCc1ccc(O)c(C(C)(C)C)c1
Out: inactive

* * *

test: ATG_GRE_CIS: Attagene CIS-FACTORIAL HepG2 Assay for human Glucocorticoid Response Elements (GRE) (AID 2282947); conditions: HepG2 GRE cis-reporter, Attagene multiplex mRNA; actives raise or lower the signal
Active and inactive are the calls of the source. How the source made its calls: active means hit-call score of the fitted dose curve at least 0.9, where 1 is the maximum; inactive means score below 0.9.
API: response.call in active, inactive

INSERT INTO assay_data (molecule, group_label) VALUES
  ('CNC(C)=O', 'inactive');

In: Give the logged outcome of this assay for the following molecule: COc1cc(C(C)C)c2c(c1)S(=O)(=O)N(COc1cc(=O)n3cccc(OCCN4CCCCC4)c3n1)C2=O
Out: active

In: Give the logged outcome of this assay for the following molecule: Cc1nc(-c2ccccn2)ncc1C(=O)Nn1cc(C)c2cc(F)ccc21
Out: inactive

In: Give the logged outcome of this assay for the following molecule: O=C(O)c1cccc(C(=O)O)c1
Out: inactive

In: Give the logged outcome of this assay for the following molecule: OC(Cn1cncn1)(Cn1cncn1)c1ccc(F)cc1F
Out: inactive

In: Give the logged outcome of this assay for the following molecule: FC(F)C(F)(F)COCC1CO1 (stereo not given)
Out: inactive

In: Give the logged outcome of this assay for the following molecule: OCCC(F)(F)C(F)(F)C(F)(F)C(F)(F)F
Out: inactive

In: Give the logged outcome of this assay for the following molecule: O=S(=O)(O)CCC(F)(F)C(F)(F)C(F)(F)C(F)(F)C(F)(F)C(F)(F)F
Out: inactive

In: Give the logged outcome of this assay for the following molecule: OC(O)(C(F)C(O)(O)C(F)(F)F)C(F)(F)F
Out: inactive

In: Give the logged outcome of this assay for the following molecule: O=C(O)c1cccc(C[C@@H]2COc3ccc(OCc4nc5cc(F)ccc5s4)cc3[C@@H]2O)c1
Out: inactive

In: Give the logged outcome of this assay for the following molecule: FC(F)=C(F)C(F)(F)C(F)(F)C(F)(F)C(F)(F)C(F)(F)C(F)(F)F
Out: inactive

* * *

assay: ATG_PPRE_CIS: Attagene CIS-FACTORIAL HepG2 Assay for human Peroxisome Proliferator-activated Response Element (PPRE) (AID 2282958); conditions: HepG2 PPRE cis-element reporter, Attagene transcription factor profiling; actives raise or lower the signal
Activity calls are given as the source filed them. Rule for the calls: active = hit-call score of the fitted dose curve at least 0.9, where 1 is the maximum; inactive = score below 0.9.
API: response.call in true (1) = active, false (0) = inactive

INSERT INTO assay_data (compound, group_label) VALUES
  ('O=C(O)CO', 'false (0)'),
  ('OCCC(F)(F)C(F)(F)C(F)(F)C(F)(F)F', 'false (0)');

In: Give the logged outcome of this assay for the following compound: FC(F)C(F)(F)COCC1CO1 (stereo not given)
Out: false (0)

In: Give the logged outcome of this assay for the following compound: C[C@]12C=CC(=O)C=C1CC[C@H]1[C@@H]3C[C@@H](O)[C@](O)(C(=O)CO)[C@@]3(C)C[C@H](O)[C@@]12F
Out: false (0)

In: Give the logged outcome of this assay for the following compound: Cn1cc[nH]c1=S
Out: false (0)

In: Give the logged outcome of this assay for the following compound: CC(=O)c1ccccc1
Out: false (0)

In: Give the logged outcome of this assay for the following compound: CCCCC(CC)C(=O)OCCOCCOCCOC(=O)C(CC)CCCC (stereo not given)
Out: false (0)
